Known growth of a selection of compounds
tested on: CAKI-1 renal; experiment: NCI-60 one-dose screen, 48 h (100 = growth as untreated, 0 = no growth, -100 = all killed); details: 10 µM unless noted
The panel holds about 83,000 compounds, 20% with a hit somewhere; the sample as a whole holds those more often. Calls of active or inactive are those of the source. How the source made its calls: active means growth percent below 10; inactive means the rest.

Sample answers from the record:
compound	subject of test	growth
CCCCN(CCCC)CCC(O)c1cc2ccc(C(F)(F)F)cc2c2cc(C(F)(F)F)ccc12 (configuration not stated)	CAKI-1 renal	38.6% (inactive)
CCc1ccc(-c2ccc(NC3CCCCCC3)nn2)cc1S(N)(=O)=O	CAKI-1 renal	96.6% (inactive)
COc1ccc(C2=NN(C=O)C(c3ccc(OS(=O)(=O)c4ccc(C)cc4)c(OC)c3)C2)cc1 (configuration not stated)	CAKI-1 renal	52.7% (inactive)
N#CC1=C(N)Oc2nc[nH]c(=O)c2C1c1cccs1 (configuration not stated)	CAKI-1 renal	94.9% (inactive)
CC(C)N=C1CCCC1C(=S)SSC(=S)C1CCCC1=NC(C)C (configuration not stated)	CAKI-1 renal	39.3% (inactive)
O=C(OCc1ccc2c(Cl)cc(Cl)c(O)c2n1)c1cc2ccccc2[nH]1	CAKI-1 renal	-98% (active)
O=C(Nc1ccccc1)C(CCCCN1C(=O)c2ccccc2C1=O)N1C(=O)c2ccccc2C1=O (configuration not stated)	CAKI-1 renal	105% (inactive)
Cc1ccc(-c2nc3ccccc3c(=O)n2/N=C/c2cccc3ccccc23)cc1	CAKI-1 renal	54.4% (inactive)
COc1ccc(NC(=O)/C=C/c2ccc(Cl)c(Cl)c2)cn1	CAKI-1 renal	59.3% (inactive)
C#CC[C@@H]1C[C@]2(C)[C@H]3CC=C4[C@H]5[C@@H](C)[C@H](C)CC[C@]5(C(=O)NCCCN5CCN(CCCN)CC5)CC[C@@]4(C)[C@]3(C)CC[C@H]2C(C)(C)[C@H]1OC(C)=O	CAKI-1 renal	-68% (active)

Give growth (CAKI-1 renal) of the following compound: "CCOC(=O)c1c(NC(=O)c2ccccc2)sc2c(O)c(CN(CC)CC)ccc12" 1.51% (active)

I'm curious: which growth was measured for "CC(=O)c1ccc(Nc2nc(Cl)nc(Oc3c(Cl)cccc3Cl)n2)cc1" tested on CAKI-1 renal? 85.5% (inactive)

# returns recorded growth (system: CAKI-1 renal) for C#CC[C@@H]1C[C@]2(C)[C@H]3CC[C@@H]4[C@H]5C(C(=C)C)CC[C@]5(C(=O)NCCCN5CCN(CCCN)CC5)CC[C@@]4(C)[C@]3(C)CC[C@H]2C(C)(C)[C@H]1OC(C)=O (some centres not stated) -96.1% (active)

Report growth for CCC1CCc2nc3sc(C(=O)Nc4cccc(F)c4)c(N)c3cc2C1 (configuration not stated) tested on CAKI-1 renal. 57.9% (inactive)

Quick check: growth on CAKI-1 renal, item "CN1CCN(Cc2ccc(NC(=O)c3cncc(C#Cc4ccc(N)nc4)c3)cc2C(F)(F)F)CC1" ? 8.16% (active)

API: value(readout= growth, system= CAKI-1 renal, query= "Nc1nc2ccc([C@@H]3Nc4ccc5[nH]ncc5c4[C@H]4[C@H]5CCC(C5)[C@H]43)cc2s1" ) 29.8% (inactive)

Provide value of growth for this record tested with CAKI-1 renal: "COc1c(-c2cc(-c3ccc(C)o3)[nH]c(=O)n2)c(O)cc2occc12" 63.8% (inactive)

So what growth did "NC(=O)c1noc(C(=O)c2ccccc2)c1N" get with CAKI-1 renal? 98.6% (inactive)

Source: PubChem BioAssay (NCI)
